target: recombinant human PAI-1 (Homo sapiens, UniProt P05121); assay: Test Example 4: Human PAI-1 Inhibitory Activity (amount of PAI-1 bound to plate-coated one-chain tPA, ELISA); type: biochemical; set-up: purchased Molecular Innovations, Inc; details: human PAI-1 bound to tPA; Compound Concentration 1µM; read-out: Inhibition Rate of PAI-1 Activity (%)
Sequence (P05121 24-402): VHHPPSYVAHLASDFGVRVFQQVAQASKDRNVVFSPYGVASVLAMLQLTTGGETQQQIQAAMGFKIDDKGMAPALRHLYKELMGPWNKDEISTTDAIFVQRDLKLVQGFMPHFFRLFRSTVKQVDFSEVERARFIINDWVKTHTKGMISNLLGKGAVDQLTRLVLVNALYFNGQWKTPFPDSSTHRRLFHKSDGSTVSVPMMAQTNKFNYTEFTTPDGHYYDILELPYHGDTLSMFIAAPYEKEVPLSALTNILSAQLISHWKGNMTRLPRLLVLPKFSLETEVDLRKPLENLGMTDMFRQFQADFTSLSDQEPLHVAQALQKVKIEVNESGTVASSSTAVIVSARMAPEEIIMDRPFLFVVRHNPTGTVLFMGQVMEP
readout: inhibition at 1 µM (%)
Your answer is read as %, so omit the unit and give the number.

Summary line: CCCCC(c1ccc(C(C)(C)C)cc1)N(C(=O)C(=O)O)c1ccc(-c2ccc(OC(F)(F)F)cc2)cc1 (stereo not shown) , recombinant human PAI-1 (Homo sapiens, UniProt P05121), reported inhibition at 1 µM = 13

// returns inhibition at 1 µM for CC(C)(C)c1ccc(Oc2cc(-c3ccc(OC(F)(F)F)cc3)ccc2OCC(=O)O)cc1 with recombinant human PAI-1 (Homo sapiens, UniProt P05121); value = 6

The value of inhibition at 1 µM recorded for CC(C)(C)c1ccc(CN(C(=O)C(=O)O)c2ccc(-c3ccc(OC(F)(F)F)cc3)cc2)cc1 when tested on recombinant human PAI-1 (Homo sapiens, UniProt P05121) reads 15

Assay recombinant human PAI-1 (Homo sapiens, UniProt P05121), sample COc1cc(OC)c(N(Cc2ccc(C(C)(C)C)cc2)C(=O)C(=O)O)cc1-c1ccc(OC(F)(F)F)cc1 , inhibition at 1 µM read: 9

// assay recombinant human PAI-1 (Homo sapiens, UniProt P05121), entry CC(C)(Oc1cc(-c2ccc(OC(F)(F)F)cc2)ccc1OCc1ccc(C(C)(C)C)cc1)C(=O)O , inhibition at 1 µM value = 7

Recorded inhibition at 1 µM for CC(C)(C)c1ccc(CN(C(=O)C(=O)O)c2cccc(-c3ccc(OC(F)(F)F)cc3)c2)cc1 on recombinant human PAI-1 (Homo sapiens, UniProt P05121) was 3

Tested on recombinant human PAI-1 (Homo sapiens, UniProt P05121), the item O=C(O)CCc1cc(-c2ccc(OC(F)(F)F)cc2)ccc1OCCCCc1ccccc1 showed inhibition at 1 µM equal to 0

###

For each entry below, report its inhibition at 3 µM value.
molecular target: recombinant human PAI-1 (Homo sapiens); assay: Test Example 2: Human PAI-1 Inhibitory Activity (pH 7.4 HEPES buffer, 10 minutes incubation with two-chain tPA); format: biochemical; set-up: purchased Molecular Innovations, Inc; conditions: read-out: Inhibition Rate of PAI-1 Activity (%)

The observed inhibition at 3 µM for CC(C)(C)c1ccc(Sc2cc(-c3ccc(OC(F)(F)F)cc3)ccc2/C=C/C(=O)O)cc1 when tested with recombinant human PAI-1 (Homo sapiens) stands at 95%

Kindly note: recombinant human PAI-1 (Homo sapiens), CCCCCOc1ccc(-c2ccc(OC(F)(F)F)cc2)cc1N(CCCSc1ccccc1)C(=O)C(=O)O , inhibition at 3 µM value reported: > 99%

Log: recombinant human PAI-1 (Homo sapiens), compound O=C(O)C(=O)N(Cc1ccc2ccccc2c1)c1ccc(-c2ccc(OC(F)(F)F)cc2)cc1 , inhibition at 3 µM = > 99%

Measured inhibition at 3 µM for this entry CC(C)(C)c1ccc(COc2ccc(-c3ccc(OC(F)(F)F)cc3)cc2CC(=O)O)cc1 on recombinant human PAI-1 (Homo sapiens): 98%

Entry CC(C)(C)c1ccc(CN(C(=O)C(=O)O)c2ccc(Cl)cc2-c2ccc(OC(F)(F)F)cc2)cc1 , recombinant human PAI-1 (Homo sapiens) data, inhibition at 3 µM value: > 99%

Lab note: compound CCCCCCCCCOc1cc(N(CCCCc2ccccc2)C(=O)C(=O)O)ccc1-c1ccc(OC(F)(F)F)cc1 tested on recombinant human PAI-1 (Homo sapiens); recorded inhibition at 3 µM was > 99%

Tested system recombinant human PAI-1 (Homo sapiens); inhibition at 3 µM recorded for CC(C)(C)c1ccc(COc2c(CCC(=O)O)cccc2-c2ccc(OC(F)(F)F)cc2)cc1 was 97%

###

biological target: recombinant human PAI-1 (Homo sapiens); assay: Test Example 2: Human PAI-1 Inhibitory Activity (pH 7.4 HEPES buffer, 10 minutes incubation with two-chain tPA); type: biochemical; set-up: purchased Molecular Innovations, Inc; conditions: read-out: Inhibition Rate of PAI-1 Activity (%)
Hi there, I'd appreciate the recorded inhibition at 1 µM for every entry that follows.
Only the number, expressed in %, is required.

Query CC(C)(C)c1ccc(Oc2ccc(-c3ccc(C(F)(F)F)cc3)cc2OCC(=O)O)cc1 yields inhibition at 1 µM of 30

Record CC(C)(C)[C@H]1CC[C@@H](CN(C(=O)C(=O)O)c2ccc(-c3ccc(OC(F)(F)F)cc3)cc2)CC1 , field inhibition at 1 µM: 77

Just so you know, measured inhibition at 1 µM for O=C(O)CCc1ccc(-c2ccc(OC(F)(F)F)cc2)cc1OCCCSc1ccccc1 came out at 48

Notebook: CC(C)(C)c1ccc(Oc2cccc(-c3ccc(OC(F)(F)F)cc3)c2CCC(=O)O)cc1 , inhibition at 1 µM read as 24

Note to self: inhibition at 1 µM recorded for Cc1cc(N(C)C)c(-c2ccc(OC(F)(F)F)cc2)cc1N(Cc1ccc(C(C)(C)C)cc1)C(=O)C(=O)O was 54

The reported value for CC(C)(C)c1ccc(Oc2cc(-c3ccc(C(C)(C)C)cc3)ccc2OCC(=O)O)cc1 in terms of inhibition at 1 µM is 84

###

target: recombinant human PAI-1 (Homo sapiens, UniProt P05121); assay: biochemical; details: read-out: Inhibition Rate of PAI-1 Activity (%), Compound Concentration 25µM
readout: inhibition at 25 µM (%)
Report only the number, with the unit % understood.

Record CC(C)(C)c1ccc(CN(C(=O)C(=O)O)c2cc(-c3ccc(OC(F)(F)F)cc3)cc(C(F)(F)F)c2)cc1 has recombinant human PAI-1 (Homo sapiens, UniProt P05121) inhibition at 25 µM equal to 66

Measured on recombinant human PAI-1 (Homo sapiens, UniProt P05121), CC(C)(C)c1ccc(CN(C(=O)C(=O)O)c2ccc(Oc3ccc(OC(F)(F)F)cc3)cc2C(F)(F)F)cc1 has a documented inhibition at 25 µM of 91

CCC(CC)Oc1ccc(N(CCCc2ccccc2)C(=O)C(=O)O)cc1-c1ccc(OC(F)(F)F)cc1 tested on recombinant human PAI-1 (Homo sapiens, UniProt P05121) gave inhibition at 25 µM: 92

Observed inhibition at 25 µM, recombinant human PAI-1 (Homo sapiens, UniProt P05121), COc1cc(OC)c(N(Cc2ccc(C(C)(C)C)cc2)C(=O)C(=O)O)cc1-c1ccc(OC(F)(F)F)cc1 : 91

###

biological target: recombinant human PAI-1 (Homo sapiens); assay: biochemical; settings: read-out: Inhibition Rate of PAI-1 Activity (%)
For each entry below, report its inhibition at 25 µM value.

response.value for CC(C)(C)c1ccc(CN(C(=O)C(=O)O)c2ccc(OCc3ccc(OC(F)(F)F)cc3)cc2)cc1 [Compound 616] (field: inhibition at 25 µM) = 96%

Record CC(C)(C)c1ccc(Oc2cc(-c3ccc(OC(F)(F)F)cc3)ccc2OCC(=O)O)cc1 [Compound 112] . Reported inhibition at 25 µM: 95%

Form: compound = CC(C)(C)c1ccc(-c2ccc(Oc3ccc(-c4ccc(OC(F)(F)F)cc4)cc3CCC(=O)O)c(CCC(=O)O)c2)cc1 [Compound 541] ; inhibition at 25 µM = > 99%

Briefly, inhibition at 25 µM measured for CC(C)(C)c1ccc(COc2cccc(Oc3ccc(OC(F)(F)F)cc3)c2/C=C/C(=O)O)cc1 [Compound 85] : 85%

###

Answer each item with its documented inhibition at 10 µM.
molecular target: recombinant human PAI-1 (Homo sapiens); experiment: biochemical; settings: read-out: Inhibition Rate of PAI-1 Activity (%)
Give me the value, and tack the unit on after it.

Reported inhibition at 10 µM of CC(C)(C)c1ccc(-c2ccc(Oc3ccc(-c4ccc(OC(F)(F)F)cc4)cc3CCC(=O)O)c(CCC(=O)O)c2)cc1 : 93%

So, CC(C)(C)c1ccc(CN(C(=O)C(=O)O)c2ccc(Cl)cc2Oc2ccc(OC(F)(F)F)cc2)cc1 ? Its inhibition at 10 µM was 92%

// inhibition at 10 µM value for CCCOc1ccc(N(CCCCc2ccccc2)C(=O)C(=O)O)cc1-c1ccc(OC(F)(F)F)cc1 : 91%

In plain terms, O=C(O)C(=O)N(c1ccc(-c2ccc(OC(F)(F)F)cc2)cc1)C1CCCCC1 has a documented inhibition at 10 µM of 16%

The molecule CC(C)(C)c1ccc(COc2ccc(-c3ccc(OC(F)(F)F)cc3)cc2OCc2nn[nH]n2)cc1 showed inhibition at 10 µM equal to 63%

Documented inhibition at 10 µM of CC(C)(Oc1ccc(-c2ccc(OC(F)(F)F)cc2)cc1Oc1ccc(C(C)(C)C)cc1)C(=O)O : 51%

Input CC(C)(C)c1ccc(COc2cc(-c3ccc(OC(F)(F)F)cc3)ccc2/C=C/C(=O)O)cc1 . Output inhibition at 10 µM: 53%
